target_desc: T1, human matriptase-2 ECD protein his tag (human, UniProt Q8IU80 78-811)
T1 construct: also called human MTP-2 ECD; huMTP-2
T1 sequence: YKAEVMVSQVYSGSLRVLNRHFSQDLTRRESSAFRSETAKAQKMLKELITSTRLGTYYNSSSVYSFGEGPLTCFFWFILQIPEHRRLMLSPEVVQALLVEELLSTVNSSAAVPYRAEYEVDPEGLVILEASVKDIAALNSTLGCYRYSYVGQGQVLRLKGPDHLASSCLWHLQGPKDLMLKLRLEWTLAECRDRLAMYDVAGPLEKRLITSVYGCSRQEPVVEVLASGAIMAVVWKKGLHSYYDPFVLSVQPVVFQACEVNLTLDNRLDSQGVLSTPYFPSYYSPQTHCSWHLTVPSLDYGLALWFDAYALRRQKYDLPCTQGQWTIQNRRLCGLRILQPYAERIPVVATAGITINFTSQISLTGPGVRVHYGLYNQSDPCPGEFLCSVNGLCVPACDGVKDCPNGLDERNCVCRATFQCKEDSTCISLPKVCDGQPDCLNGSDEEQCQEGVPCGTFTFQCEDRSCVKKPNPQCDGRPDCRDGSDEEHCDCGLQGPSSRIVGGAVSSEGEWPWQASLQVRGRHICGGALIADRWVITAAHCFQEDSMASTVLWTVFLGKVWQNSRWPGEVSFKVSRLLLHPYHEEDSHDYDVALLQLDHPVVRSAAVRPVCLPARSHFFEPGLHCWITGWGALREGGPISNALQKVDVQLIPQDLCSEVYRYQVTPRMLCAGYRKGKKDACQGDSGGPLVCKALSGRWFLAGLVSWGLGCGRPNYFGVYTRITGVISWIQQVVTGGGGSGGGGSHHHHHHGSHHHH
procedure_details: SPR (Biacore 8K), huIgG4PE captured on anti-human Fc, MTP-2 ECD as analyte, 1:1 fit
quantity_kind: kon (M⁻¹ s⁻¹)
# output: bare number, implied unit M⁻¹ s⁻¹

Ask | Tell me the measured kon of NORI-008 (antibody, human IgG4 S228P, kappa, V domains shown, human IgG4PE, kappa, in the in vitro assays; a mouse IgG1 format was used in one in vivo study only; also called NORI-008 hulgG4PE; NORI-008 IgG) VH: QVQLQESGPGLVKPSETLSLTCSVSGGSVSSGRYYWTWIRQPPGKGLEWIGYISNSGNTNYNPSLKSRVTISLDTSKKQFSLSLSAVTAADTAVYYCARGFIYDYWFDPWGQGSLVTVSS VL: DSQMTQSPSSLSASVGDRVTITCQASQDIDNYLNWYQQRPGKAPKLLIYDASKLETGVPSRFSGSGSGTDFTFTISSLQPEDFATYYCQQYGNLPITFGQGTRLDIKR , please.
Reply | 1.14e+06

Ask | How about this binder: NORI-013 (antibody, human IgG4 S228P, lambda, V domains shown, human IgG4PE, lambda) VH: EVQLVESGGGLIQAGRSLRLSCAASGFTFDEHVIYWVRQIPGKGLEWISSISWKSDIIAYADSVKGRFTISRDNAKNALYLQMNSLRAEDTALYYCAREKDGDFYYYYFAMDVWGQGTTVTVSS VL: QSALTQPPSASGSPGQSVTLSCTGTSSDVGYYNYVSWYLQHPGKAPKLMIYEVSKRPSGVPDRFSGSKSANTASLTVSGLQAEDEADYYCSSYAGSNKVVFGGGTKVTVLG
Reply | 32200

Ask | # iterate: NORI-014 (antibody, human IgG4 S228P, lambda, V domains shown, human IgG4PE, lambda) VH: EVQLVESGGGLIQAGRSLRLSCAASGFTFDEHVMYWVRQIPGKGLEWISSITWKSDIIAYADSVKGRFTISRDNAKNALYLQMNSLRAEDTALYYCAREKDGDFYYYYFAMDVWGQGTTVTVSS VL: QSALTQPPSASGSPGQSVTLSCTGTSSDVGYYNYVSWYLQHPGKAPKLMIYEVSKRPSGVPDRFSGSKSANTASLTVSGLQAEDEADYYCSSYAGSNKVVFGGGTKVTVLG
Reply | 26900

Ask | Check NORI-009 (antibody, human IgG4 S228P, lambda, V domains shown, human IgG4PE, lambda) VH: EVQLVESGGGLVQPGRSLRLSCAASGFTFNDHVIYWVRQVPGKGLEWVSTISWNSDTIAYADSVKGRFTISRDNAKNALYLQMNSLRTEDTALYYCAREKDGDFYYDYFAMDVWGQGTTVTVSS VL: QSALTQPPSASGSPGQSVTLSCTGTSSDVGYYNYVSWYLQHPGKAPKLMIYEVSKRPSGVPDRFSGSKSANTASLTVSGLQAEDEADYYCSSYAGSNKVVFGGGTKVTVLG too.
Reply | 74800

Ask | What would you report for NORI-012 (antibody, human IgG4 S228P, lambda, V domains shown, human IgG4PE, lambda) VH: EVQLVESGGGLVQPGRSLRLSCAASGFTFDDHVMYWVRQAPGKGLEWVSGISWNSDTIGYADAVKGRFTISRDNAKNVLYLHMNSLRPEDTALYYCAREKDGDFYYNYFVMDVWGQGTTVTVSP VL: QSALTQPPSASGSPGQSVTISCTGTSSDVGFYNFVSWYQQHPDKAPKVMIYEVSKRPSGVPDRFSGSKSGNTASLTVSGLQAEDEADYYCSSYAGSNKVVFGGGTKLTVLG ?
Reply | 46700

Entry source: patent US20230025129A1
